Experiment: qHTS assay for measurement of the activity of small molecule inhibitors on Zika virus induced Caspase-3 activity in human iPSC derived neural progenitor cells (hNPCs) (AID 1224857); note: nearly all actives have a fitted effect of over 65% in size
Settings: hNPCs ZIKV-induced caspase-3/7, Caspase-Glo luminescence, 6 h; series mostly up to 45.7 µM
Results filed as inconclusive are left out. Activity calls are given as the source filed them. Calls come from the whole dose curve; as a rule, active = well fitted inhibition curve with a large enough effect; inconclusive = small, poorly fitted or top-dose-only effect; inactive = no such curve, though single readings can be large or run the other way.
// classify into active, inactive

Each compound tested received a call. Report the one for `CN1CCN(CCOc2cc(OC3CCOCC3)c3c(Nc4c(Cl)ccc5c4OCO5)ncnc3c2)CC1` . inactive

Each compound tested received a call. Report the one for `O=C1NC(=O)C(=Cc2ccc3nccnc3c2)S1` . active

Each compound tested received a call. Report the one for `CC=CC(=O)N(CC)c1ccccc1C` . inactive

Each compound tested received a call. Report the one for `OC[C@H]1O[C@@H](Oc2cc(O)cc(C=Cc3ccc(O)cc3)c2)[C@H](O)[C@@H](O)[C@H]1O` . inactive

Each compound tested received a call. Report the one for `O=C(Nc1cc(Cl)cc2c1[nH]c1cnccc12)c1cccnc1` . inactive

Each compound tested received a call. Report the one for `CC(=O)O[C@]1(C(C)=O)CC[C@H]2[C@@H]3C=C(Cl)C4=CC(=O)[C@@H]5C[C@@H]5[C@]4(C)[C@H]3CC[C@@]21C` . inactive

Each compound tested received a call. Report the one for `CCN(CC)CCNC(=O)c1ccc(N)cc1` . inactive

Each compound tested received a call. Report the one for `CC(=O)N(C)C1(c2ccccc2)CCN(CCC[C@]2(c3ccc(Cl)c(Cl)c3)CCCN(C(=O)c3ccccc3)C2)CC1` . inactive

Each compound tested received a call. Report the one for `O=C(O)Cc1cccc2ccccc12` . inactive

Each compound tested received a call. Report the one for `O=C1NC(=O)C(c2ccccc2)(c2ccccc2)N1` . inactive

###

Assay: qHTS of pediatric cancer cell lines to identify multiple opportunities for drug repurposing: Primary screen for NB1643 cells (AID 1347099); note: nearly all actives have a fitted effect of over 50% in size
Conditions: NB1643 neuroblastoma viability, CellTiter-Glo luminescence, 48 h; series mostly up to 46 µM
Inconclusive results are not listed. Calls of active or inactive are those of the source. The call rests on the fitted dose curve; in most records, active means well fitted cell-killing curve with a large enough effect; inconclusive means small, poorly fitted or top-dose-only effect; inactive means no such curve, though single readings can be large or run the other way.
// classify into active, inactive

Each molecule tested received a call. Report the one for CC(C)C(C)C=CC(C)C1CCC2C3=CC=C4CC(O)CCC4(C)C3CCC21C (stereo not drawn) . inactive

Each molecule tested received a call. Report the one for `CC(=O)N[C@@H](CS)C(=O)O` . inactive

Each molecule tested received a call. Report the one for CC1CCC(C(=O)N(c2cc(C#CC(C)(C)C)sc2C(=O)O)C2CCC(O)CC2)CC1 (stereo not drawn) . active

Each molecule tested received a call. Report the one for `CN(C)c1cc(NC(=O)CNC(C)(C)C)c(O)c2c1C[C@@H]1C[C@H]3[C@H](N(C)C)C(=O)C(C(N)=O)=C(O)[C@@]3(O)C(=O)C1=C2O` . inactive

Each molecule tested received a call. Report the one for `O=C(OCC#CCSc1nnc(-c2cccc3ccccc23)o1)c1cc2ccccc2s1` . inactive

Each molecule tested received a call. Report the one for `CC[C@H]1OC(=O)[C@H](C)[C@@H](O[C@H]2C[C@@](C)(OC)[C@@H](O)[C@H](C)O2)[C@H](C)[C@@H](O[C@@H]2O[C@H](C)C[C@H](N(C)C)[C@@H]2O)[C@](C)(O)C[C@@H](C)CN(C)[C@H](C)[C@@H](O)[C@]1(C)O` . inactive

Each molecule tested received a call. Report the one for C=C1C(=O)[C@@]23C(CC[C@@H]1[C@H]2O)[C@@]12CO[C@]3(O)[C@@H](O)[C@@H]1C(C)(C)CC[C@@H]2O (stereo partly drawn) . active

Each molecule tested received a call. Report the one for `CC1(C)O[C@H]2C[C@@H]3[C@H]4CCC5=CC(=O)C=C[C@]5(C)[C@@]4(F)[C@@H](O)C[C@]3(C)[C@]2(C(=O)CO)O1` . active

Each molecule tested received a call. Report the one for `O=C1c2c(O)cc(O)cc2O[C@H](c2cc(O)c(O)c(O)c2)[C@H]1O` . active

Each molecule tested received a call. Report the one for `CO[C@H]1C(=O)[C@]2(C)[C@@H](OC)C[C@H]3OC[C@@]3(OC(C)=O)[C@H]2[C@H](OC(=O)c2ccccc2)[C@]2(O)C[C@H](OC(=O)[C@H](O)[C@@H](NC(=O)OC(C)(C)C)c3ccccc3)C(C)=C1C2(C)C` . inactive

Each molecule tested received a call. Report the one for `CC(=O)c1ccc(S(=O)(=O)NC(=O)NC2CCCCC2)cc1` . inactive

Each molecule tested received a call. Report the one for O=C(O)CCC1CCC(c2cc(F)ccc2F)(S(=O)(=O)c2ccc(Cl)cc2)CC1 (stereo not drawn) . active

Each molecule tested received a call. Report the one for `Nc1nc(F)nc2c1ncn2[C@@H]1O[C@H](COP(=O)(O)O)[C@@H](O)[C@H]1O` . active

Each molecule tested received a call. Report the one for `COc1ccccc1N1CCN(CCCNc2cc(=O)n(C)c(=O)n2C)CC1` . inactive

Each molecule tested received a call. Report the one for `NC(=O)[C@@H](CCC(F)(F)F)N(Cc1ccc(-c2ncon2)cc1F)S(=O)(=O)c1ccc(Cl)cc1` . active

Each molecule tested received a call. Report the one for `CCn1cc(C(=O)O)c(=O)c2ccc(C)nc21` . inactive

Each molecule tested received a call. Report the one for `CC1(C)CCC(CN2CCN(c3ccc(C(=O)NS(=O)(=O)c4ccc(NCC5CCOCC5)c([N+](=O)[O-])c4)c(Oc4cnc5[nH]ccc5c4)c3)CC2)=C(c2ccc(Cl)cc2)C1` . active

Each molecule tested received a call. Report the one for `Cn1cc(C=C2C(=O)Nc3cccnc32)c2ccccc21` . inactive

Each molecule tested received a call. Report the one for `O=C(NC1CCOCC1)c1ccc(-c2cc(-c3cn[nH]c3-c3ccccn3)ccn2)cc1` . inactive

Each molecule tested received a call. Report the one for `C=CCc1ccc(O)c(-c2ccc(O)c(CC=C)c2)c1` . inactive

Each molecule tested received a call. Report the one for `COc1cc2ncnc(Nc3ccc(F)c(Cl)c3)c2cc1OCCCN1CCOCC1` . active

Each molecule tested received a call. Report the one for `NCCS` . inactive

Each molecule tested received a call. Report the one for `CCS(=O)(=O)N1CC(CC#N)(n2cc(-c3ncnc4[nH]ccc34)cn2)C1` . active

Each molecule tested received a call. Report the one for CN(C)CCC(c1ccccc1)c1ccccn1 (stereo not drawn) . inactive

Each molecule tested received a call. Report the one for `C[N+](C)(C)CC(=O)O` . inactive

Each molecule tested received a call. Report the one for `COc1cccc(-c2cc(=O)c3ccccc3o2)c1N` . active

Each molecule tested received a call. Report the one for `CCOC(CN1C(=O)[C@](CC(=O)Nc2ccc(C)cc2)(NC(=O)Nc2ccc(C)cc2)c2ccccc21)OCC` . active

Each molecule tested received a call. Report the one for `CCC(CC)[C@H](NC(C)=O)[C@@H]1[C@H](O)[C@@H](C(=O)O)C[C@@H]1N=C(N)N` . inactive

Each molecule tested received a call. Report the one for `CC(=NNC(=S)N1CCC1)c1ccccn1` . active

Each molecule tested received a call. Report the one for `NC(=O)c1ccc2nc(-c3ccc(Oc4ccc(Cl)cc4)cc3)[nH]c2c1` . inactive

Each molecule tested received a call. Report the one for `O=c1cc(-c2ccccc2)oc2cc(O)c(O)c(O)c12` . inactive

Each molecule tested received a call. Report the one for C=C1C(=O)OC(CCCCCCCC)C1C(=O)O (stereo not drawn) . inactive

Each molecule tested received a call. Report the one for `O=C(O)[C@H]1O[C@H](Oc2cc3oc(-c4ccccc4)cc(=O)c3c(O)c2O)[C@H](O)[C@@H](O)[C@H]1O` . active

Each molecule tested received a call. Report the one for `COc1ccc(Cc2ccc(NC(N)=O)cc2)cc1-c1cccc(Cl)c1` . active

Each molecule tested received a call. Report the one for `NC(CO)(CO)CCc1ccc(Sc2cccc(OCc3ccccc3)c2)cc1Cl` . active

Each molecule tested received a call. Report the one for `C[N+](C)(C)CCCCCC[N+](C)(C)C` . inactive

Each molecule tested received a call. Report the one for `CC(=O)O[C@]1(C(C)=O)CC[C@@H]2[C@@H]3C[C@H](C)C4=CC(=O)CC[C@]4(C)[C@H]3CC[C@@]21C` . active

Each molecule tested received a call. Report the one for `O=C(O)c1cc(-c2ccccc2)nc2ccccc12` . inactive
